subject of test: PRMT1 (Homo sapiens, UniProt Q99873)
Construct: made in house
Sequence (Q99873 whole entry, species assumed): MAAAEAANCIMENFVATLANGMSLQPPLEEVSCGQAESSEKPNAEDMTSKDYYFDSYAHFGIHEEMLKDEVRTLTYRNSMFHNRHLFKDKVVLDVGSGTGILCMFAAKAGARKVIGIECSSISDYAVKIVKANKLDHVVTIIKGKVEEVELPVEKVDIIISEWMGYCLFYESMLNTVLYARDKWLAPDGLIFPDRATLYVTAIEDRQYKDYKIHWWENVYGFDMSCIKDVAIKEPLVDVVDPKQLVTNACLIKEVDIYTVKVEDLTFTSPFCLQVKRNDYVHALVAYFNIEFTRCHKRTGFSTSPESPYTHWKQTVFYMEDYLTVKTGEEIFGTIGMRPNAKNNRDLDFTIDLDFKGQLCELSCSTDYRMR
procedure summary: SAHH-coupled fluorescence assay, inhibition of PRMT1
Assay type: biochemical
Protocol: A fluorescence-based SAHH-coupled assay was applied to study the inhibition activity of all synthesized compounds on PRMT 1 and 3. […] A fluorescence-based SAHH-coupled assay was applied to determine the inhibition activity of all synthesized compounds on PRMT 1 and 3. […] The fluorescence signal was monitored on a BMG CLARIOstar microplate reader with excitation at 400 nm and emission at 465 nm for 15 min. […]
value type: inhibition at 10 µM (%)

1 = Nc1ncnc2c1ncn2[C@@H]1O[C@H](CSCCNC(=O)NC2CCCCC2)[C@@H](O)[C@H]1O [Compound 7i]
2 = N=C(NCCCSC[C@H]1O[C@@H](n2cnc3c(NCCCc4ccccc4)ncnc32)[C@H](O)[C@@H]1O)Nc1ccccc1 [Compound 19j]
3 = Nc1ncnc2c1ncn2[C@@H]1O[C@H](CSCCOc2ccc(-c3ccoc3)cc2)[C@@H](O)[C@H]1O [Compound 14c]
Order these by inhibition at 10 µM, descending, and give the full ranking. Please respond with the labels ordered as the question requires. 2, 1, 3

A = N=C(NCCSC[C@H]1O[C@@H](n2cnc3c(N)ncnc32)[C@H](O)[C@@H]1O)Nc1cccc(-c2ccc(Cl)cc2)c1 [Compound 6a]
B = Nc1cccc(-c2ccc(CNC(=O)NCCSC[C@H]3O[C@@H](n4cnc5c(N)ncnc54)[C@H](O)[C@@H]3O)cc2)c1 [Compound 8b]
Out of A and B , name the one with the higher inhibition at 10 µM. Write the label of whichever entry you select. A
(A: 89%, B: 7%)
